Recorded values, source patent US8669352.

- TARGET_ENTITY: T1, human CD40 (human, UniProt P25942 21-277)
- T1 construct: whole, on cells; also called huCD40; CD40 expressed on JY cells
- MEASUREMENT_DESCRIPTION: FACS on JY cells expressing CD40; 100 µl PER.C6 transient supernatant harvested after 48 h (antibody concentration not equalised), FITC anti-human IgG 1/100; in the same figure Mock Control Mean 11.25 / Median 8.74, FACS control (secondary only) Mean 10.18 / Median 8.74
Mean (FL1-H) listing for selected binders.
# unit: FL1-H | format: bare number

PG102 (I29L variant) (antibody, human IgG4, kappa, V domains shown, Human IgG4/kappa; also called 29L-37I) VH: QVKLQESGPGLVKPSETLSITCTVSGFSLSRYSVYWIRQPPGKGPEWMGMMWGGGSTDYSTSLKSRLTISKDTSKSQVSLKMNSLRTDDTAMYYCVRTDGDYWGQGTTVTVSS VL: ELQLTQSPLSLPVTLGQPASISCRSSQSLANSNGNTYLHWYLQRPGQSPRLLIYKVSNRFSGVPDRFSGSGSGTDFTLKISRVEAEDVGVYYCSQSTHVPWTFGGGTKLEIKR    108

Shift focus to the following entry.
GET /value?item= T17S variant of deimmunised 5D12 (antibody, human IgG4, V domains shown, VH on a human IgG4 backbone) VH: QVKLQESGPGLVKPSESLSITCTVSGFSISRYSVYWIRQPPGKGPEWMGMMWGGGSTDYSTSLKSRLTISKDTSKSQVSLKMNSLRTDDTAMYYCVRTDGDYWGQGTTVTVSS VL: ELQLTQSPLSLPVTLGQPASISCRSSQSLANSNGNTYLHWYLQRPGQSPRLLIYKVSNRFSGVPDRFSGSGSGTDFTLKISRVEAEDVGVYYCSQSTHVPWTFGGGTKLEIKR &field=Mean (FL1-H) returns 33.4
